Reference source for all entries: PubChem BioAssay AID179

pIC50: recorded values
Test system: CEM cells HIV-1 protection, formazan growth assay
test.summary: NCI AIDS Antiviral Assay
assay.context: measured here: growth of uninfected CEM cells
Experimental: The ability of compounds to protect human CEM cells from HIV-1 infection is measured as a screen for new compounds capable of inhibiting the HIV virus. Five concentrations of drug were tested on uninfected and infected cells and cell growth was measured using a soluble formazan assay. […] Compounds that provided at least 50% protection were retested. Compounds that provided at least 50% protection on retest were listed as moderately active. […]
pIC50 field: float, defined as -log10 of concentration (mol/L).

// worked examples, pIC50 included
Item: O=C1CN2C(Cl)(Cl)C2(c2ccccc2)c2cc(Cl)ccc2N1CC1CC1 (stereo unspecified) Test system: CEM cells HIV-1 protection, formazan growth assay Read-out: pIC50 Value: ?
4.93

Look up pIC50 with CEM cells HIV-1 protection, formazan growth assay for this compound: O=S1(=O)C2CCCCC2(N2CCOCC2)C1c1ccccc1 (stereo unspecified)
4.34

Record lookup: for CEM cells HIV-1 protection, formazan growth assay, what pIC50 belongs to "COc1ccc2ccccc2c1CN1CCOCCOCCN(Cc2c(OC)ccc3ccccc23)CCOCCOCC1" ?
5.31

Quick check: pIC50 on CEM cells HIV-1 protection, formazan growth assay, item CC(C)C1=C(O)C2=C(C(=O)C1=O)C1(C)CCCC(C)(C)C1C(O)C2OC=O (stereo unspecified) ?
4.99

pIC50 of "O=C(C(=O)n1ncc(Cl)c(Cl)c1=O)n1ncc(Cl)c(Cl)c1=O" on CEM cells HIV-1 protection, formazan growth assay?
4.30

// switching to the query compound
Kindly state the measured pIC50 obtained for "CC(=O)CCCCn1c(=O)c2c(nc(Br)n2C)n(C)c1=O" with CEM cells HIV-1 protection, formazan growth assay.
4.28

====

Test system: CEM cells HIV-1 protection, formazan growth assay
test.summary: NCI AIDS Antiviral Assay;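 active = compounds giving half or more protection of infected cells from virus-caused growth loss, again on retest; inactive = the rest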
Could you please pick one outcome from this set? t (active), f (inactive)

Please indicate how the test categorized CC1CC(c2ccc(Cl)c(Cl)c2)=Nc2ccccc2S1 (centres undefined) .
f

State the result this test recorded for COC(=O)CN(CC(=O)NCCCBr)C1CCCCC1N(CC(=O)OC)CC(=O)OC (centres undefined) .
f

Record request — test call for CCCCN(C(=O)c1ccccc1)C1CCC(=O)c2[nH]c3ccccc3c21 (centres undefined)
f

Which outcome did this test record for the molecule "O=C(Nc1ccc(Cl)c(C(F)(F)F)c1)C(=O)c1c(O)c2ccccc2oc1=O" ?
f

Tell me the assay call for "CCn1c2ccc(C(=O)CCCN3CCCCC3)cc2c2cc(C(=O)CCCN3CCCCC3)ccc21" please.
f

Next:
Returns: the outcome recorded for O=C(CC1(O)C(=O)Nc2c(Cl)cc(Cl)cc21)c1ccc(Br)cc1Br (centres undefined) in this assay.
f

Recorded call for "CCOC(=O)C1(C(=O)OCC)C(C(C)(C)C)=C(C)c2ccccc21" ?
f

Assay result, entry "COc1ccccc1NC(=S)N=Nc1c(O)[nH]c2ccccc12" — outcome?
f

What was the test verdict on "C(=N\NC1=NCCN1)/c1ccc(-c2cn3cc(/C=N/NC4=NCCN4)ccc3n2)cc1" ?
f

What is the recorded call for this molecule in the test? "C#CCN(C)Cc1ccccc1"
f

====

System: CEM cells HIV-1 protection, formazan growth assay
test.summary: NCI AIDS Antiviral Assay
pEC50: −log10 of the molar value.
metric.name: pEC50

// returns reported pEC50 for input "COc1ccc2c(c1)CC1=C(O2)c2ccc(OC)cc2OC1"
< 3.70

Can you look up the measured pEC50 of "O=c1[nH]nc(-c2ccccc2)n1-c1cccc([N+](=O)[O-])c1" for me?
< 3.70

Looking for the measured pEC50 of "NS(=O)(=O)c1ccc(NC(=O)/C=C/C(=O)O)cc1" , can you help?
< 3.70

For the molecule shown here, "O=C1/C(=C/c2cccc([N+](=O)[O-])c2)COc2ccccc21" , give the reported pEC50.
< 4.89

For "Cc1nc2c(c(N3CCN(C)CC3)n1)Cc1ccccc1-2" , what is its reported pEC50?
< 3.70

// pEC50 lookup, key: O=C1OC(C2Cc3cc4c(cc3C2=O)CCC4)c2ccccc21 (stereo unspecified)
< 3.70

====

Test system: CEM cells HIV-1 protection, formazan growth assay
test.summary: NCI AIDS Antiviral Assay
Protocol: The ability of compounds to protect human CEM cells from HIV-1 infection is measured as a screen for new compounds capable of inhibiting the HIV virus. Five concentrations of drug were tested on uninfected and infected cells and cell growth was measured using a soluble formazan assay. […] Compounds that provided at least 50% protection were retested. Compounds that provided at least 50% protection on retest were listed as moderately active. […]
pEC50: −log10 of the molar value.
metric.name: pEC50

Examples with their reported pEC50 follow.
Quick check: pEC50 of "NC(CSS(=O)(=O)O)=NCCCCOc1ccccc1" ?
< 3.70

Which pEC50 value belongs to "C/C=C/C=C1\C=Cc2c(C(=O)OC)coc(=O)c21" ?
< 3.70

Continuing:
What does the data say about its pEC50? Entry: "Cc1nn2c(=O)c([N+](=O)[O-])c(/C=C/c3ccco3)nc2s1"
< 3.70

Looking for the measured pEC50 of "c1cc2n(n1)CCN2" , can you help?
< 2.64

Data request, read-out pEC50, for "CCOC(=O)C(=O)Nc1ccccc1C(F)(F)F"
< 3.44

Please report the recorded pEC50 for "O=C1c2ccccc2C(=O)N1C/C=N/NS(=O)(=O)c1ccc2ccccc2c1" .
< 3.62

Which pEC50 is listed for "Cc1c(N2C(=O)/C(=C/c3ccc(N(CCC#N)CCC#N)cc3)N=C2c2ccccc2)c(=O)n(-c2ccccc2)n1C" ?
< 3.70

# lookup: pEC50 of "CCCCc1c2c([n+]([O-])c3c1CCCC3)CCCC2"
< 3.86

What does the data say about its pEC50? Entry: "c1nc(SSc2ncnc3nc[nH]c23)c2[nH]cnc2n1"
< 4.70

Could you tell me which pEC50 is on file for CC(=O)OCC1OC(n2c(C)c(C(C)=O)c(-c3ccc(Cl)cc3)c(C#N)c2=S)C(OC(C)=O)C(OC(C)=O)C1OC(C)=O (stereo not drawn) ?
< 3.70

Look up pEC50: COc1ccc(CC2COC(=O)[C@@H]2Cc2cccc(O)c2)cc1OC (stereo partly drawn)
< 3.70

Would you mind telling me what pEC50 value was observed for "CCOC(=O)C1=NN(c2ccccc2)C(=O)/C1=C\N1C(=O)CC(=O)NC1=S" ?
< 3.70

====

Tested on: CEM cells HIV-1 protection, formazan growth assay
test.summary: NCI AIDS Antiviral Assay
metric.name: EC50

The cases that follow already have their EC50 on record.
Given the entry CC(C)c1ccc(C2NC(=S)NC3=C2c2ccccc2C3=O)cc1 (centres undefined) , report its measured EC50.
> 107 µM

EC50 lookup needed for COC(=O)C1=CC2C(=O)c3ccccc3C1(c1ccccc1)N2C1CCCCC1 (centres undefined) , thanks.
> 200 µM

What measured EC50 goes with O=S1(=O)CCc2ccccc2C(Br)C1 (centres undefined) ?
> 200 µM

Continuing:
Value lookup for EC50; key = "Nc1ccc(/C=C/c2ccnc3ccccc23)c(N)c1"
0.0631 µM

Request the reported EC50 associated with "CC(=O)N1C(=O)c2cc3ccccc3cc21"
> 200 µM

What value of EC50 has been reported for the following compound? "CCCCCCC(c1cc(Cl)c(OC)c(C(=O)OC)c1)c1cc(Cl)c(OC)c(C(=O)OC)c1"
> 36.3 µM

Value lookup for EC50; key = CC(C(=O)O)c1ccc(-n2nnc3c(=O)[nH][nH]c(=O)c32)cc1 (centres undefined)
> 200 µM

Look at this compound and give its reported EC50. "C/C(O)=C(\C=N\C(=S)N=Nc1c(O)[nH]c2ccccc12)C(=O)Nc1ccccc1C"
> 200 µM

Which value of EC50 has been reported for "C=CCN1/C(=C(\C#N)c2nc3ccccc3[nH]2)Sc2c1nc[nH]c2=O" in the records?
> 10.7 µM

Fill in: EC50 of "Cc1ccc(S(=O)(=O)OCCOS(=O)(=O)c2ccc(C)cc2)cc1" is ___
> 36.3 µM

Requested field: EC50. Item: "CCCNC(=O)Sc1ccccc1C(=O)N[C@@H](C)C(N)=O"
> 4.17 µM

// EC50 lookup, key: "Cc1cc(Sc2cc(C)c(O)c(C(C)(C)C)c2)cc(C(C)(C)C)c1O"
> 200 µM

Record request: EC50 value, item "COC(=O)/C(=C/c1ccc(OC)cc1)C(C(=O)O)=C(C)C"
> 871 µM

Which value of EC50 has been reported for Nc1ncnc2c1ncn2[C@H]1CC(CO)CO1 (some centres undefined) in the records?
> 661 µM

Can you share its EC50? I mean this compound: "CCN(CC)CCN1C(=O)C(=O)N(c2cccc3ccccc23)C1=O"
> 200 µM

# get_value(readout='EC50', item= "COc1cccc(/C=C2/S/C(=N/Nc3nc(C)c(C(C)=O)s3)NC2=O)c1O" )
> 200 µM

For "CS/C(C)=N/OC(=O)NCCCCNc1ccc(N=[N+]=[N-])cc1" , what is its reported EC50?
> 148 µM

Which EC50 is listed for "Cc1ccccc1[P+](Cc1ccccc1)(c1ccccc1)c1ccccc1" ?
> 200 µM

Look up EC50: "N#C/C(=C(\N)c1ccccc1)c1ccccc1"
> 200 µM

Could you tell me which EC50 is on file for "O=c1[nH]nc(Cc2ccccc2)n1CCCl" ?
> 200 µM

Sample CC1CCN(C(C)C)P(=S)(Cc2ccccc2)O1 (centres undefined) — what was its EC50?
> 200 µM

Any idea what EC50 was measured for CC(=O)NC(CCCNC(=O)N(C)N=O)C(=O)NCc1ccccc1 (centres undefined) ?
> 708 µM

// query EC50 value for entry "N#CC(C#N)=CN1CCNC1=S"
> 200 µM

I'd like to know its EC50. The compound in question is "O=C(NNCC(F)(F)F)c1ccncc1"
> 200 µM
